Test system: MCF-7 cell line
method-summary: In vitro anti-proliferative MTT assay, MCF-7
Assay type: cell-based, human
protocol-conditions: Homo sapiens, MCF7, supplement raw data, dose-response curve fit; read-out: LogIC50 best-fit value, MCF-7 (converted)
parameter-measured: IC50 (µM)
Kindly answer with a numeric value in µM, unit omitted.

Lookup result for O=C(CSc1nc2ccccc2o1)Nc1ccc(C(=O)NC2CCCC2)cc1 [Compound 12a] ; measured IC50: 33.3

Record O=C(CSc1nc2cc(Cl)ccc2o1)Nc1ccc(C(=O)Nc2cccc(Cl)c2)cc1 [Compound 12k] . Reported IC50: 86.7

IC50 reported for this molecule O=C(CSc1nc2cc(Cl)ccc2o1)Nc1ccc(C(=O)NC2CCCC2)cc1 [Compound 12b] : 77.1

Lookup result for COc1cccc(NC(=O)c2ccc(NC(=O)CSc3nc4cc(C)ccc4o3)cc2)c1 [Compound 12i] ; measured IC50: 28

The reported IC50 of the molecule O=C(CSc1nc2cc(Cl)ccc2o1)Nc1ccc(C(=O)NNC(=O)c2cccc(Cl)c2)cc1 [Compound 13b] was 26.3

molecule CC(C)(C)NC(=O)c1ccc(NC(=O)CSc2nc3cc(Cl)ccc3o2)cc1 [Compound 12e] , IC50 observed: 62.2

Record CC(C)(C)NC(=O)c1ccc(NC(=O)CSc2nc3ccccc3o2)cc1 [Compound 12d] , field IC50: 44.1

Value of IC50 reported for the molecule Cc1ccc2oc(SCC(=O)Nc3ccc(C(=O)NC(C)(C)C)cc3)nc2c1 [Compound 12f] is 22.5
